Record form. Attribute: agonist activity: Akt phosphorylation in Caki-1 cells, Mean (%) (PBS = 0%, HGF/SF = 100%). Fill in for each entry.
# experimental-target: c-Met on cancer cell lines (Caki-1 renal cell carcinoma; MKN45 c-Met-amplified gastric cancer) (UniProt P08581 25-1390)
# Sequence (P08581 25-1390): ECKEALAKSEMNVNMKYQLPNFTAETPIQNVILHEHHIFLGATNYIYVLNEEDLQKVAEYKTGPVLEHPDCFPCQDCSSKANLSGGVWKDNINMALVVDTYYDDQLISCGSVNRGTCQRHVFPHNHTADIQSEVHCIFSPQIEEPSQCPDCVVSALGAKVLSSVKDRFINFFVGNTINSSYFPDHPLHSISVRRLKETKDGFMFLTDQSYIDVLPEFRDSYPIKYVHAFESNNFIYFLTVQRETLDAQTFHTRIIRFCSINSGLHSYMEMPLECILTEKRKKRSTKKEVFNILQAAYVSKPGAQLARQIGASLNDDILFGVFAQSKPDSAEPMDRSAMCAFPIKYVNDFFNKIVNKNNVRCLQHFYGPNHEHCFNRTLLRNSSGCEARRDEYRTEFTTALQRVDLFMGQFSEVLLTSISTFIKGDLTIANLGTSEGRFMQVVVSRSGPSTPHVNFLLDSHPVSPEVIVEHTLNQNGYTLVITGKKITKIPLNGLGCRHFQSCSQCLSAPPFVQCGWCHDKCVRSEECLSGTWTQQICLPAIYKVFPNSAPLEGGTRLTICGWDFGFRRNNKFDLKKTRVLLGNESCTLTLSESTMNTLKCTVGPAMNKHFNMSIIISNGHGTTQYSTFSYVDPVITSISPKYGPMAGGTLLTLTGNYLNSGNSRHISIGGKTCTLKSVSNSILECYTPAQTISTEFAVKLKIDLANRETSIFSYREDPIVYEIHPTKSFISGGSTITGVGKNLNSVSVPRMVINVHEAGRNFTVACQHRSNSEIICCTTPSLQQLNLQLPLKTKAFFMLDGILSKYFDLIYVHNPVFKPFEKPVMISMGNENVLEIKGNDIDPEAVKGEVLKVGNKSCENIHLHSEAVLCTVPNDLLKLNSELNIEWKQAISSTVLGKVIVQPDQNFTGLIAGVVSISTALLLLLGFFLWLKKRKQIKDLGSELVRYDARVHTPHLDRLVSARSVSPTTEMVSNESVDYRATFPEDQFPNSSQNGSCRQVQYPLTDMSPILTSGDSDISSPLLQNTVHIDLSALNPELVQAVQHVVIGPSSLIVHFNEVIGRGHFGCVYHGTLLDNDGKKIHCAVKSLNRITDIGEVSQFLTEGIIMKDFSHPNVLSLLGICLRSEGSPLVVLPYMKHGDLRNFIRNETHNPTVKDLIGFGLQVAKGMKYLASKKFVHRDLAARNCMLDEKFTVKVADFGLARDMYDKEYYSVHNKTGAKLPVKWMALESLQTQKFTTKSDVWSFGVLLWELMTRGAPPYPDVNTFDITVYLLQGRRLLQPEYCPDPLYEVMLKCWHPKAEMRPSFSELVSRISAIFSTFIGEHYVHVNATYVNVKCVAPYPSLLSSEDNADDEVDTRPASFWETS
# measurement-protocol: cell-based or functional assay
Kindly answer with a numeric value in %, unit omitted.

Asked: Item under review: 1F12_L51D, full-length human IgG1 (antibody, V domains shown) VH: EVQLLESGGGLVQPGGSLRLSCAASGFTFSNYAMSWVRQAPGKGLEWVSGISYSGGSTYYADSVKGRFTISRDNSKNTLYLQMNSLRAEDTAVYYCAKASRSCQRPACSYANGMDVWGQGTLVTVSS VL: QSVLTQPPSASGTPGQRVTISCTGSSSNIGNNYVTWYQQLPGTAPKLLIYYDNHRPSGVPDRFSGSKSGTSASLAISGLQSEDEADYYCGSWDYSLSAYVFGGGTKLTVL . Reported agonist activity: Akt phosphorylation in Caki-1 cells, Mean (%) (PBS = 0%, HGF/SF = 100%)?
Given back: 42.5

Asked: Can you share its agonist activity: Akt phosphorylation in Caki-1 cells, Mean (%) (PBS = 0%, HGF/SF = 100%)? I mean this binder: 1F12_H3L5, full-length human IgG1 (antibody, V domains shown) VH: EVQLLESGGGLVQPGGSLRLSCAASGFTFSNYAMSWVRQAPGKGLEWVSGISYSGGSKYYADSVKGRFTISRDNSKNTLYLQMNSLRAEDTAVYYCAKASRSCQRPACSYANGMDVWGQGTLVTVSS VL: QSVLTQPPSASGTPGQRVTISCTGSSSNIGNNYVTWYQQLPGTAPKLLIYYNNHRPSGVPDRFSGSKSGTSASLAISGLQSEDEADYYCGSWDYSLRAYVFGGGTKLTVL
Given back: 18.9

Asked: Any idea what its agonist activity: Akt phosphorylation in Caki-1 cells, Mean (%) (PBS = 0%, HGF/SF = 100%) is? The binder is 1F12_L50E, full-length human IgG1 (antibody, V domains shown) VH: EVQLLESGGGLVQPGGSLRLSCAASGFTFSNYAMSWVRQAPGKGLEWVSGISYSGGSTYYADSVKGRFTISRDNSKNTLYLQMNSLRAEDTAVYYCAKASRSCQRPACSYANGMDVWGQGTLVTVSS VL: QSVLTQPPSASGTPGQRVTISCTGSSSNIGNNYVTWYQQLPGTAPKLLIYENNHRPSGVPDRFSGSKSGTSASLAISGLQSEDEADYYCGSWDYSLSAYVFGGGTKLTVL
Given back: 37.2

Asked: So what does the record say about agonist activity: Akt phosphorylation in Caki-1 cells, Mean (%) (PBS = 0%, HGF/SF = 100%) for 1F12_H57K, full-length human IgG1 (antibody, V domains shown) VH: EVQLLESGGGLVQPGGSLRLSCAASGFTFSNYAMSWVRQAPGKGLEWVSGISYSGGSKYYADSVKGRFTISRDNSKNTLYLQMNSLRAEDTAVYYCAKASRSCQRPACSYANGMDVWGQGTLVTVSS VL: QSVLTQPPSASGTPGQRVTISCTGSSSNIGNNYVTWYQQLPGTAPKLLIYYNNHRPSGVPDRFSGSKSGTSASLAISGLQSEDEADYYCGSWDYSLSAYVFGGGTKLTVL ?
Given back: 26.8

Asked: Form field: reported agonist activity: Akt phosphorylation in Caki-1 cells, Mean (%) (PBS = 0%, HGF/SF = 100%) of 1F12_H58D, full-length human IgG1 (antibody, V domains shown) VH: EVQLLESGGGLVQPGGSLRLSCAASGFTFSNYAMSWVRQAPGKGLEWVSGISYSGGSTDYADSVKGRFTISRDNSKNTLYLQMNSLRAEDTAVYYCAKASRSCQRPACSYANGMDVWGQGTLVTVSS VL: QSVLTQPPSASGTPGQRVTISCTGSSSNIGNNYVTWYQQLPGTAPKLLIYYNNHRPSGVPDRFSGSKSGTSASLAISGLQSEDEADYYCGSWDYSLSAYVFGGGTKLTVL
Given back: 21.5
